These data points were gathered from patent US20190359653A1.

Assayed Target: hFZD7 CRD-Fc (human, UniProt O75084 33-185)
Test Summary: spot phage ELISA
Recorded S/N for the following binders

Which S/N value is on record for AAADDLAAWCHVVY [SEQ ID NO 98] ?
50.8

Which S/N value is on record for VAADALEFWCHVMY [SEQ ID NO 55] ?
54.2

Which S/N value is on record for LPSADLESWCHVMY [SEQ ID NO 79] ?
48.6

Which S/N value is on record for AASDDLEAWCHVMY [SEQ ID NO 70] ?
52.1
